Reported z-score values for the following compounds.
- experiment-notes: basal HepG2 mitochondrial membrane potential changes, profiling panel, cell-based, JC-1 fluorescence, 24 h, 100 nL compound (AID 1167); further: test concentration not given here
- test-conditions: higher = more signal
Lab note: jot the number down without any unit.

Q: Quick check: z-score of O=C1[C@H]2[C@H]3[C@H](O)[C@H](O)CC(=NOCc4ccccc4)[C@@H]3CC[C@H]2C(=O)N1c1ccc(F)cc1F ?
Ans: 1.51

Q: Quick check: z-score of CCCNC(=O)OC[C@H]1O[C@H](CCON=C(C)CCN2CCc3nc(CC)c(CC)cc3C2)C=C[C@@H]1Oc1ccc(OC)cc1 ?
Ans: 4.22

Q: Quick check: z-score of C=CC[C@@H]1C=C[C@H](ON=C2[C@H]3CCn4c(=O)n(-c5ccccc5)c(=O)n4[C@H]3[C@H](O)[C@@H]3O[C@H]23)[C@@H](CO)O1 ?
Ans: -0.568

Q: Quick check: z-score of CCOC(=O)[C@H](Cc1ccccc1)NC(=O)CCC1CC(OC(=O)NCc2cccc3ccccc23)CC2(CCCC(COC(=O)NCc3cccc(C(F)(F)F)c3)O2)O1 (some centres not stated) ?
Ans: 3.94

Q: Quick check: z-score of CO[C@H]1COC(=O)[C@@H](C)COC(=O)[C@@H](OCc2ccccc2)C=C[C@@H]1C ?
Ans: 0.485
